# Tested on: antibodies raised against an immunogen having the structure shown in FIG. 29
# assay_remarks: Fluorescence polarization immunoassay cross-reactivity, tracer of FIG. 31
# Assay type: binding, sheep
# cond: Conc. Added 1200 ng/mL; tracer FIG. 31
This section presents compounds with their documented % CR values.
Form entry: value (%) — number only.

Value of measured % CR for the entry CCC1(CCC(C)C)C(=O)NC(=O)NC1=O [Amobarbital] : 73

Value of measured % CR for the entry C=CCC1(CC(=C)Br)C(=O)NC(=O)NC1=O [Brallobarbital] : 159

Value of measured % CR for the entry CCCC(C)C1(CC)C(=O)NC(=O)NC1=O (stereo not shown) [Pentobarbital] : 64

Value of measured % CR for the entry C=CCC1(C(C)C)C(=O)NC(=O)NC1=O [Aprobarbital] : 139

Value of measured % CR for the entry CCC1(c2ccccc2)C(=O)NC(=O)NC1=O [Phenobarbital] : 107

Value source: patent US6472227B1
